- Test target: Neuronal acetylcholine receptor subunit alpha-7 (Homo sapiens, UniProt P36544)
- Sequence (P36544 whole entry): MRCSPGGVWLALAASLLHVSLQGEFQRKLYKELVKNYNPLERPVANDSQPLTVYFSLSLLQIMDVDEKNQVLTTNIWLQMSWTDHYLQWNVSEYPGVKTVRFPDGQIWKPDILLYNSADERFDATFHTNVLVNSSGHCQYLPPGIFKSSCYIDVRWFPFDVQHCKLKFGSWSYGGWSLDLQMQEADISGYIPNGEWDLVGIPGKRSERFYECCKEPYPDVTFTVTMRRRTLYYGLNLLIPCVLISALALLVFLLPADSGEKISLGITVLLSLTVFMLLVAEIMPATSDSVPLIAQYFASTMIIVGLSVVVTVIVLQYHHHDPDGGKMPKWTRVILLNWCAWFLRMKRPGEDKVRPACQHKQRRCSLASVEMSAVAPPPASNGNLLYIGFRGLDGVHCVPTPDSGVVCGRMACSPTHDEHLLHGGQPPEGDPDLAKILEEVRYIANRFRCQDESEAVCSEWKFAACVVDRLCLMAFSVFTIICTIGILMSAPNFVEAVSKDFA
- Assay overview: Antagonist activity at human alpha7 nAChR expressed in Xenopus oocyte assessed as inhibition of ACh-induced current after 30 secs by electrophysiological assay
Can you tell me pIC50 for the items I'm about to list?
Interpret pIC50 as the negative base-10 log of the concentration measured in mol/L.

Inquiry: Name the reported pIC50 value associated with the molecule CCC#CCN1CCC[C@H]1CNC(=O)c1ccc2ncsc2c1
Reply text: 4.35

Inquiry: Name the reported pIC50 value associated with the molecule CC(C)N1CCCCN(C(=O)c2ccc3c(c2)OCCO3)CC1
Reply text: 5.16

Inquiry: Name the reported pIC50 value associated with the molecule O=C(N[C@@H]1CCCC[C@H]1N1CCCCC1)Oc1ccc(Br)cc1 (racemic)
Reply text: 5.00

Inquiry: Name the reported pIC50 value associated with the molecule CCC#CCN1CCC[C@@H]1CNC(=O)c1ccc2ncsc2c1
Reply text: 4.40

Inquiry: Name the reported pIC50 value associated with the molecule CC1CCCC1N1CC[C@H](NC(=O)c2ccc3ncsc3c2)C1 (stereo not given in full)
Reply text: 5.30

###

- Test target: Neuronal acetylcholine receptor; alpha3/beta2 (Homo sapiens) (UniProt P17787+P32297)
- Assay overview: Positive allosteric modulation at human recombinant alpha3beta 2 nAChR expressed in Xenopus oocyte assessed as stimulation of ACh-induced current at 10 uM after 30 secs by electrophysiological assay
Calls of active or inactive are those of the source. No cut-off for these calls is given here.

Compound | Test target | Activity
O=C(NCC1CC2CCN1CC2)c1ccc(F)cc1 (racemic) | Neuronal acetylcholine receptor; alpha3/beta2 (Homo sapiens) (UniProt P17787+P32297) | Active
CN1CCC2CC1CN(C(=O)Oc1ccc(Br)cc1)C2 (racemic) | Neuronal acetylcholine receptor; alpha3/beta2 (Homo sapiens) (UniProt P17787+P32297) | Active
O=C(NCC12CCCN1CCC2)c1ccc(Cl)cc1 | Neuronal acetylcholine receptor; alpha3/beta2 (Homo sapiens) (UniProt P17787+P32297) | Active
O=C(NCC12CCCN1CCC2)c1ccccc1 | Neuronal acetylcholine receptor; alpha3/beta2 (Homo sapiens) (UniProt P17787+P32297) | Active
